Experiment: Effect of concentration on the stability of the solution (purity over time)
Test Conditions: 30 wt %; in water at 25° C.
Task for the reader: assign each of the following compounds its reported Purity at Day 14.
Report only the number, with the unit % understood.

### Prompt Reported Purity at Day 14 for CCN(CC)CCOC(=O)Cc1ccc(C(=O)c2ccc(C)cc2)n1C.Cl : what is it?
### Response 97.3

### Prompt Reported Purity at Day 14 for CCN(CC)CCOC(=O)CC1=C(C)C(=Cc2ccc([S+](C)[O-])cc2)c2ccc(F)cc21.Cl (stereo not shown) : what is it?
### Response 97.3

### Prompt Reported Purity at Day 14 for CCN(CC)CCOC(=O)CCc1nc(-c2ccccc2)c(-c2ccccc2)o1.Cl : what is it?
### Response 98.3

### Prompt Reported Purity at Day 14 for CCN(CC)CCOC(=O)C(C)c1ccc2oc(-c3ccc(Cl)cc3)nc2c1.Cl (stereo not shown) : what is it?
### Response 98.0

### Prompt Reported Purity at Day 14 for CCN(CC)CCOC(=O)CCc1ccc2cc(OC)ccc2c1.Cl : what is it?
### Response 98.1

### Prompt Reported Purity at Day 14 for CCN(CC)CCOC(=O)Cc1sc(-c2ccccc2)nc1-c1ccc(Cl)cc1.Cl : what is it?
### Response 98.3

### Prompt Reported Purity at Day 14 for CCN(CC)CCOC(=O)Cc1c(C)n(C(=O)c2ccc(Cl)cc2)c2ccc(OC)cc12.Cl : what is it?
### Response 98.0
